# experimentalSystem: T1, human PD-L1 antigen (Beijing Sino Biological Inc, Catalog No. #10084-H08H-100) (human, UniProt Q9NZQ7 19-239)
# T1 construct: Bought antigen; also called the antigen
# T1 sequence (Q9NZQ7 19-239 limits assumed): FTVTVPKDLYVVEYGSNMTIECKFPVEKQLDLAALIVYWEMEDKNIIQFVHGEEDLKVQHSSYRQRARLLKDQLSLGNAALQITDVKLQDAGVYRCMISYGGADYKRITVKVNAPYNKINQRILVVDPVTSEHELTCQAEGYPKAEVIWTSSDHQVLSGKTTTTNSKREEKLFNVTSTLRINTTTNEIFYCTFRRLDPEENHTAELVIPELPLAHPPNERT
# testSummary: BLI (ForteBIO Octet), antibody captured on sensor, human PD-L1 in solution
measuredQuantity: Kd (nM)

binder="Antibody I-HX-5 (antibody, human IgG4 S228P, kappa, V domains shown) VH: VQLVQSGAEVKKPGASVKVSCKASGYTFTSYWMHWVRQAPGQGLEWMGAIYWAHSETSYNQKFKGRVTITAVTSASTAYMELSSLRSEDTAVYYCTHWLEVYFHGMDHWGQGTLVTVSS VL: DIQMTQSPSSLSASVGDRVTITCRASQNGINTLNWLQQKPGKAIKRLIYVTSSLDSGVPKRFSGSRSGSDYSLTISSLQPEDFATYYCLYYASYFFTFGQGTKLEIKR" measurementunit=nM observedresult=0.459
binder="Antibody I-HX-2 (antibody, human IgG4 S228P, kappa, V domains shown, also called antibody I sample; candidate antibody I sample) VH: VQLVQSGAEVKKPGASVKVSCKASGYSFTSYWMHWVRQAPGQGLEWMGAIYPGNSDTSYNQKFKGRVTITAVTSASTAYMELSSLRSEDTAVYYCTRWGDGYYHAMDHWGQGTLVTVSS VL: DIQMTQSPSSLSASVGDRVTITCRASQDIGNTLNWLQQKPGKAIKRLIYATSSLDSGVPKRFSGSRSGSDYSLTISSLQPEDFATYYCLQYASSPFTFGQGTKLEIKR" measurementunit=nM observedresult=0.0291
binder="Antibody I-HX-1 (antibody, human IgG4 S228P, kappa, V domains shown, expressed in HEK 293 or CHO cells) VH: VQLVQSGAEVKKPGASVKVSCKASGYSYYFYWMHWVRQAPGQGLEWMGAIYHINSDTSYNQKFKGRVTITAVTSASTAYMELSSLRSEDTAVYYCTRWGEGYYHAMNHWGQGTLVTVSS VL: DIQMTQSPSSLSASVGDRVTITCRASQDLGNTLNWLQQKPGKAIKRLIYASSSLDSGVPKRFSGSRSGSDYSLTISSLQPEDFATYYCLYYASTPFTFGQGTKLEIKR" measurementunit=nM observedresult=0.046
